- testDetails: acute toxicity, single intraperitoneal administration
- particulars: mouse, in vivo; single ip, mice (ddY strain)
recordedMetric: LD50 (mg/kg)

[[record]]
compound = "CO[C@@H]1[C@@H](N)[C@@H](O[C@H]2[C@H](Oc3cccc4c(O)c5c(=O)oc6ccc(C)c7c(=O)oc(c34)c5c67)O[C@H](C)[C@H](O)[C@]2(C)O)O[C@H](C)[C@@H]1O [BBM-2478A]"
recordedmetric = "LD50"
measurement = 38

